- ASSAY_TARGET: Pantothenate synthetase (Mycobacterium tuberculosis (strain ATCC 25618 / H37Rv))
- ASSAY_INFO: Coupled enzyme confirmation of inhibitors against recombinant Mtb PanC (AID 375);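 note: 0% = full reaction with vehicle and 100% = no enzyme background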
- ASSAY_CONTEXT: coupled enzyme assay; at 10 µM, active compounds read high
ASSAY_ENDPOINT: inhibition (%)
The figure you give is taken to be in %; do not add the unit.

State the recorded inhibition for this entry: `Cc1ccccc1-n1c(=O)cc(N2CCN(C(=O)c3ccco3)CC2)[nH]c1=O` 0

What do we get for `O=C(Nc1cnccn1)c1cccs1` ? 0

What do we get for `COc1ccc(-c2cc3n(n2)CCc2nc4ccccc4n2-3)cc1` ? 0

What do we get for `Cn1c(NC(=O)c2ccccc2NC(=O)C(C)(C)C)nc2ccccc21` ? 0

What do we get for `COc1ccccc1-c1nnc(SCc2ccccn2)n1C` ? 0

What do we get for O=C(NCC(c1cccnc1)N1CCOCC1)c1ccco1 (configuration not stated) ? 2

What do we get for `CCn1c(SCC(=O)Nc2nnc(C)s2)nnc1-c1ccncc1` ? 1

What do we get for O=C(NCC1CCCO1)c1cccc(N2C(=O)C3C4C=CC(C4)C3C2=O)c1 (configuration not stated) ? 11

What do we get for CC1CN(C(=O)CSc2ncnc3sccc23)CC(C)O1 (configuration not stated) ? 0

What do we get for `CCc1nccn1S(=O)(=O)c1ccc(C)c(C)c1` ? 0

What do we get for `COC(=O)Cn1c2ccccc2c2nc(C)sc21` ? 0

What do we get for `CCCC(=O)Nc1nnc(CC(=O)OCC)s1` ? 3
